Entry source: patent US11198713B2

- assayed-target: full-length beta-catenin (Axin site) (Homo sapiens)
- Construct: 15 nM full-length beta-catenin, 20 nM FITC labeled peptide in buffer
- Sequence (P35222 whole entry): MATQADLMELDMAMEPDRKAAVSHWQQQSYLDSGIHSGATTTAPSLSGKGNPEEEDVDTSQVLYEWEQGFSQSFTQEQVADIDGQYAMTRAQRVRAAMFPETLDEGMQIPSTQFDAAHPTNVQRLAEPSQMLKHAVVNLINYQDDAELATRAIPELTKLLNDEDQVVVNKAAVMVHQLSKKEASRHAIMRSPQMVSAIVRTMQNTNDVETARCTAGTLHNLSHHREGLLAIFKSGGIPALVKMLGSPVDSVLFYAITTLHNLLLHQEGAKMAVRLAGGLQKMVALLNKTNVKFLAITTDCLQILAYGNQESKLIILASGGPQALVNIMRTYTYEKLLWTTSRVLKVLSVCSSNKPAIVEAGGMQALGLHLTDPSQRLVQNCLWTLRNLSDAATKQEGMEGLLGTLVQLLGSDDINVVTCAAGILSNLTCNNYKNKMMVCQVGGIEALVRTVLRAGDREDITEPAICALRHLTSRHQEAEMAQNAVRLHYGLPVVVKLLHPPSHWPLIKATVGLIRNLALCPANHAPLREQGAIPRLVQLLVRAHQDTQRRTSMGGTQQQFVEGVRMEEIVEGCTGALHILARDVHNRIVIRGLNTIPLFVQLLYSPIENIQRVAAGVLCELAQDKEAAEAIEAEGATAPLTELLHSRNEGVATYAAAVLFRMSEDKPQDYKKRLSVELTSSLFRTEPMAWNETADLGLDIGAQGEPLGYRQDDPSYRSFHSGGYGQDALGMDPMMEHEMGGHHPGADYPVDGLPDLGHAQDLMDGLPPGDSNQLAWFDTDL
- method: Competition fluorescence polarization assay (Axin site probe)
- Assay type: binding
- condition-summary: competition fluorescence polarization, Table 2; read-out: in vitro FP EC50
pEC50: −log10 of the molar value. Numbered stars: 1 amine (or outer) side, 2 acyl side, 3 side chain; on linkers, the order of the positions; unused ones are H or OH. Bridge positions count the residues as written; N and C are the ends. Square brackets hold non-standard residues; d marks the D form. Peptide text beside a SMILES is read from it. αMeDab(Me) = CN(CC[C@](C)(N[*:1])C(=O)[*:2])[*:3]; X1 = O=C([C@]1(N[*:1])CCN([*:3])C1)[*:2]; X2 = O=C(OCC=CCOC(=O)[*:2])[*:1]
The following compounds are shown together with reported pEC50 values.

{"compound": "CC[C@H](C)[C@@H]1NC(=O)[C@H](Cc2c[nH]cn2)NC(=O)[C@H](C)NC(=O)[C@H](CC(=O)O)NC(=O)[C@H](CC(C)C)NC(=O)[C@H]([C@@H](C)CC)NC(=O)[C@](C)(NC(=O)[C@H](C)NC(C)=O)CCCCCCC=CCOC(=O)N2CC[C@@](C(=O)N[C@@H](CCCNC(=N)N)C(=O)N[C@H](C(=O)N[C@H](Cc3c[nH]c4ccccc34)C(N)=O)C(C)C)(C2)NC1=O [FP0630c, Ac-A-R8-I-L-D-A-H-I-MB-R-V-dW-NH2]", "pEC50": "6.30 to 7.00"}

Task: Read off the recorded pEC50 for CC[C@H](C)[C@@H]1NC(=O)[C@H](Cc2c[nH]cn2)NC(=O)[C@H](C)NC(=O)[C@H](CC(=O)O)NC(=O)[C@H](CC(C)C)NC(=O)[C@H]([C@@H](C)CC)NC(=O)[C@@](C)(NC(=O)[C@H](C)NC(C)=O)CCN(C)C(=O)OCC=CCOC(=O)N2CC[C@@](C(=O)N[C@@H](CCCNC(=N)N)C(=O)N[C@H](C(=O)N[C@@H](Cc3c[nH]c4ccccc34)C(N)=O)C(C)C)(C2)NC1=O [FP0626c, Ac-A-MF-I-L-D-A-H-I-MB-R-V-W-NH2] (Ac-A[αMeDab(Me)]ILDAHI[X1]RVW-NH2; linker 2-9 via X2)
Output: > 7.00

----------
- method: Plasma PK in rats
- Format: in vivo
- condition-summary: rat, plasma; IV 0.5 mg/kg, male Sprague-Dawley rats
reported-endpoint: half-life

Task: Read off the recorded half-life for CC[C@H](C)[C@@H]1NC(=O)[C@H](Cc2c[nH]cn2)NC(=O)[C@H](C)NC(=O)[C@H](CC(=O)O)NC(=O)[C@H](CC(C)C)NC(=O)[C@H]([C@@H](C)CC)NC(=O)[C@](C)(NC(=O)[C@H](C)NC(C)=O)CCCCCCC=CCOC(=O)N2CC[C@@](C(=O)N[C@@H](CCCNC(=N)N)C(=O)N[C@H](C(=O)N[C@@H](Cc3c[nH]c4ccccc34)C(N)=O)C(C)C)(C2)NC1=O (single isomer, unassigned) [FPO217c Isomer 2, Ac-AR8ILDAHIMBRVW (SEQ ID NO: 280)]
Output: > 1 h

----------
The following compounds are shown together with reported pEC50 values.
- assayed-target: full-length beta-catenin (Axin site) (Homo sapiens)
- Construct: 15 nM full-length beta-catenin, 20 nM FITC labeled peptide in buffer
- method: Competition fluorescence polarization assay (Axin site probe)
- Assay type: binding
- condition-summary: competition fluorescence polarization, Table 2; read-out: in vitro FP EC50
- Experimental: FIG. 1. […] Peptide solutions were prepared in buffer (50 mM Tris pH 8.0, 250 mM NaCl, 2% glycerol, 0.5 mM EDTA, 0.02% w/v sodium azide) using a 3-fold serial dilution from 5 μM. […] Equal volume of the titrated peptide was added to the plate and incubated protected from light for 15 minutes prior to read. Reads were performed on a Spectramax M5 (Molecular Devices) in duplicate. FIG. 7. […] Reads were performed on a Spectramax M5 (Molecular Devices) in duplicate. […]
pEC50: −log10 of the molar value.

{"compound": "CC[C@H](C)[C@@H]1NC(=O)[C@H](Cc2c[nH]cn2)NC(=O)[C@H](C)NC(=O)[C@H](CCS(C)(=O)=O)NC(=O)[C@H](CC(C)C)NC(=O)[C@H]([C@@H](C)CC)NC(=O)[C@](C)(NC(=O)[C@H](C)NC(C)=O)CCCCCCC=CCOC(=O)N2CC[C@@](C(=O)N[C@@H](CCCNC(=N)N)C(=O)N[C@H](C(=O)N[C@@H](Cc3c[nH]c4ccccc34)C(N)=O)C(C)C)(C2)NC1=O [FP0629c, Ac-A-R8-I-L-M2O-A-H-I-MB-R-V-W-NH2]", "pEC50": "5.30 to 6.30"}

For the next question, use this compound.
Task: Read off the recorded pEC50 for CC[C@H](C)[C@@H]1NC(=O)[C@](C)(NC(=O)[C@H](CCC(N)=O)NC(=O)[C@@H]2CCCN2C(C)=O)CCCC=CCN2CC[C@@](C(=O)N[C@@H](Cc3c[nH]cn3)C(=O)N[C@H](C(=O)N[C@@H](CCCNC(=N)N)C(=O)N[C@@H](CCCNC(=N)N)C(=O)N[C@H](C(=O)N[C@@H](Cc3c[nH]c4ccccc34)C(=O)N[C@@H](CCCNC(=N)N)C(N)=O)C(C)C)C(C)C)(C2)NC(=O)[C@H](CC(=O)O)NC(=O)[C@H](CC(C)C)NC1=O (single isomer, unassigned) [FP0758a, Ac-P-Q-R5-I-L-D-MB-H-V-R-R-V-W-R-NH2]
Output: < 5.30

----------
- assayed-target: full-length beta-catenin (Axin site) (Homo sapiens)
- Construct: 15 nM full-length beta-catenin, 20 nM FITC labeled peptide in buffer
- method: Competition fluorescence polarization assay (Axin site probe)
- Format: binding
- condition-summary: competition fluorescence polarization, Table 2; read-out: in vitro FP EC50
Numbered stars: 1 amine (or outer) side, 2 acyl side, 3 side chain; on linkers, the order of the positions; unused ones are H or OH. Bridge positions count the residues as written; N and C are the ends. Square brackets hold non-standard residues; d marks the D form. Peptide text beside a SMILES is read from it. dαMeDab(Me) = CN(CC[C@@](C)(N[*:1])C(=O)[*:2])[*:3]; dαMeDap(Me) = CN(C[C@@](C)(N[*:1])C(=O)[*:2])[*:3]; X3 = O=C([C@@]1(N[*:1])CCN([*:3])C1)[*:2]; X1 = O=C([C@]1(N[*:1])CCN([*:3])C1)[*:2]; X2 = O=C(OCC=CCOC(=O)[*:2])[*:1]
reported-endpoint: EC50

Past entries and their recorded results:
{"compound": "CC[C@H](C)[C@@H]1NC(=O)C2(NC(=O)[C@H](CCC(N)=O)NC(=O)[C@@H]3CCCN3C(C)=O)CN(C2)C(=O)OCC=CCCC[C@](C)(C(=O)N[C@@H](Cc2c[nH]cn2)C(=O)N[C@H](C(=O)N[C@@H](CCCNC(=N)N)C(=O)N[C@@H](CCCNC(=N)N)C(=O)N[C@H](C(=O)N[C@@H](Cc2c[nH]c3ccccc23)C(=O)N[C@@H](CCCNC(=N)N)C(N)=O)C(C)C)C(C)C)NC(=O)[C@H](CC(=O)O)NC(=O)[C@H](CC(C)C)NC1=O (single isomer, unassigned) [FP0723c, Ac-P-Q-MA-I-L-D-R5-H-V-R-R-V-W-R-NH2]", "experimental-result": "0.5 to 5 µM"}
{"compound": "CC[C@H](C)[C@@H]1NC(=O)[C@H](Cc2c[nH]cn2)NC(=O)[C@H](C)NC(=O)[C@H](CC(=O)O)NC(=O)[C@H](CC(C)C)NC(=O)[C@H]([C@@H](C)CC)NC(=O)[C@](C)(NC(=O)[C@H](C)NC(C)=O)CCN(C)C(=O)OCC=CCOC(=O)N2CC[C@](C(=O)N[C@@H](CCCNC(=N)N)C(=O)N[C@H](C(=O)N[C@@H](Cc3c[nH]c4ccccc34)C(N)=O)C(C)C)(C2)NC1=O [FP0598c, Ac-A-MG-I-L-D-A-H-I-MC-R-V-W-NH2] (Ac-A[dαMeDab(Me)]ILDAHI[X3]RVW-NH2; linker 2-9 via X2)", "experimental-result": "< 0.1 µM"}
{"compound": "CC[C@H](C)[C@@H]1NC(=O)[C@H](Cc2c[nH]cn2)NC(=O)[C@H](C)NC(=O)[C@H](CC(=O)O)NC(=O)[C@H](CC(C)C)NC(=O)[C@H]([C@@H](C)CC)NC(=O)[C@](C)(NC(=O)[C@H](C)NC(C)=O)CCCCC=CCOC(=O)N(C)CC[C@@](C)(C(=O)N[C@@H](CCCNC(=N)N)C(=O)N[C@H](C(=O)N[C@@H](Cc2c[nH]c3ccccc23)C(N)=O)C(C)C)NC1=O (single isomer, unassigned) [FP0502c Isomer 1, Ac-A-R6-I-L-D-A-H-I-MF-R-V-W-NH2]", "experimental-result": "< 0.1 µM"}

Task: Read off the recorded EC50 for CC[C@H](C)[C@@H]1NC(=O)[C@H](Cc2ccccn2)NC(=O)[C@H](C)NC(=O)[C@H](CC(=O)O)NC(=O)[C@H](CC(C)C)NC(=O)[C@H]([C@@H](C)CC)NC(=O)[C@](C)(NC(=O)[C@H](C)NC(C)=O)CCCCCCC=CCOC(=O)N2CC[C@@](C(=O)N[C@@H](Cc3c[nH]c4ccccc34)C(=O)N[C@H](C(=O)N[C@@H](Cc3c[nH]c4ccccc34)C(N)=O)C(C)C)(C2)NC1=O (single isomer, unassigned) [FP0563c Isomer 2, Ac-A-R8-I-L-D-A-2pyr-I-MB-W-V-W-NH2]
Output: > 5 µM

Task: Read off the recorded EC50 for CC[C@H](C)[C@@H]1NC(=O)[C@H](Cc2c[nH]cn2)NC(=O)[C@H](C)NC(=O)[C@H](CC(=O)O)NC(=O)[C@H](CC(C)C)NC(=O)[C@H]([C@@H](C)CC)NC(=O)[C@](C)(NC(=O)[C@H](C)NC(C)=O)CN(C)C(=O)OCC=CCOC(=O)N2CC[C@@](C(=O)N[C@@H](CCCNC(=N)N)C(=O)N[C@H](C(=O)N[C@@H](Cc3c[nH]c4ccccc34)C(N)=O)C(C)C)(C2)NC1=O [FP0604c, Ac-A-ME-I-L-D-A-H-I-MB-R-V-W-NH2] (Ac-A[dαMeDap(Me)]ILDAHI[X1]RVW-NH2; linker 2-9 via X2)
Output: < 0.1 µM
